biological target: UniProt P00433; conditions: 0.1 mg/ml, 10µl test compound
Measured Parameter: (b) Increase in signal (with HRP, with test cpd.)

Example entries and their recorded answers appear below.
CCCCOB(OCCCC)c1ccc(-c2ccc(Br)cc2)cc1	Y Y
O=C(CCl)Nc1cccc(B(O)O)c1	N
BrCc1ccccc1OB(Oc1ccccc1CBr)c1ccccc1CBr	N
OB(O)c1ccc(Cl)c(Cl)c1	Y
CCC(C)CNc1cccc(B(O)O)c1 (centres unmarked)	N

In: Look at this molecule and give its reported (b) Increase in signal (with HRP, with test cpd.). c1ccc2c(OB(Oc3cccc4ccccc34)c3cccc4ccccc34)cccc2c1
Out: N

In: Please give the result for OB(O)c1cccc2c1Sc1ccccc1S2 too.
Out: N

In: Please give the result for Clc1ccc(OB(Oc2ccc(Cl)cc2)c2ccc(Cl)cc2)cc1 too.
Out: Y

----------
target: UniProtKB P00433; details: 0.01 mg/ml, 10µl test compound; control value in brackets not reported
Measured Parameter: (d) Signal: Background: ratio (control = with no enhancer)
Number only, please.

Example entries and their recorded answers appear below.
OB(O)c1ccc(Oc2ccccc2)cc1	3.0
OB(O)c1cc(N=Nc2cccc(C(F)(F)F)c2)ccc1O	2.7

In: Look at this compound and give its reported (d) Signal: Background: ratio (control = with no enhancer). OB(O)c1ccccc1-c1ccccc1
Out: 1.9

----------
target: HRP Type VIA (Armoracia rusticana, UniProt P00433); conditions: 0.01 mg/ml, 10µl test compound
Measured Parameter: (c) Increase in signal: background ratio

Example entries and their recorded answers appear below.
CSCc1ccccc1B(O)O [Compound 1050, 2-(methylthiomethyl)phenylboronic acid]	N (N = no)
OB(O)c1ccc(Oc2ccccc2)cc1 [Compound 1010, 4-(phenoxy)benzeneboronic acid]	N (N = no)
CCC(C)CNc1cccc(B(O)O)c1 (centres unmarked) [Compound 1032]	N (N = no)
c1ccc(B2OCCCO2)cc1 [Compound 1012, 2-phenyl-1,3,2-dioxaborinane]	N (N = no)

Please examine the following record next.
In: Query the reported (c) Increase in signal: background ratio for HRP Type VIA (Armoracia rusticana, UniProt P00433); item: c1ccc2c(OB(Oc3cccc4ccccc34)c3cccc4ccccc34)cccc2c1 [Compound 1047, di-(1-naphthoxy)-l-naphthylborane]
Out: N (N = no)

----------
molecular target: HRP Type VIA (Armoracia rusticana, UniProt P00433); conditions: 0.1 mg/ml, 10µl test compound; control value in brackets not reported
Measured Parameter: (d) Signal: Background: ratio (control = with no enhancer)
Number only, please.

Example entries and their recorded answers appear below.
CCCCOB(OCCCC)c1ccc(-c2ccc(Br)cc2)cc1	2118.5
OB(O)c1cccc2ccccc12	3.4

Please examine the following record next.
In: Look at this compound and give its reported (d) Signal: Background: ratio (control = with no enhancer). OCC(CO)(CO)COB(O)O [Compound 1017, pentaerythritol borate]
Out: 2.5

----------
target: HRP Type VIA (Armoracia rusticana, UniProt P00433); details: 0.01 mg/ml, 10µl test compound
Measured Parameter: (a) Decrease in background (without HRP with test cpd.)

Example entries and their recorded answers appear below.
Clc1ccc(OB(Oc2ccc(Cl)cc2)c2ccc(Cl)cc2)cc1	Y
OB(O)c1ccc(Oc2ccccc2)cc1	Y
OB(O)c1cc(Cl)ccc1Cl	Y
OB(O)c1ccccc1Cl	Y
CCCCOB(OCCCC)c1ccc(-c2ccc(Br)cc2)cc1	Y Y

In: Look at this molecule and give its reported (a) Decrease in background (without HRP with test cpd.). OB(O)c1cccc2c1oc1ccccc12
Out: Y

In: Please give the result for Cc1ccc(B(O)O)cc1 too.
Out: Y

In: Please give the result for c1ccc(B2OCCCO2)cc1 too.
Out: N

In: Please give the result for CC(C)COB(c1ccccc1)c1ccccc1 too.
Out: Y

----------
target: HRP Type VIA (Armoracia rusticana); conditions: 0.1 mg/ml, 10µl test compound; control value in brackets not reported
Measured Parameter: (d) Signal: Background: ratio (control = with no enhancer)

OB(O)c1cccc2c1Sc1ccccc1S2 [Compound 1007, 1-thianthreneboronic acid]	2.5
CCC(C)CNc1cccc(B(O)O)c1 (stereo not drawn) [Compound 1032]	3.4 (2.9)
OB(O)c1cc(N=Nc2cccc(C(F)(F)F)c2)ccc1O [Compound 1005]	2.9
OB(O)c1ccccc1-c1ccccc1 [Compound 1004, 2-biphenylboronic acid]	2.2
Nc1c(Cl)cc(Cl)c(B(O)O)c1Cl [Compound 1026]	72.4 (2.8)
O=C(O)c1ccc(B(O)O)cc1[N+](=O)[O-] [Compound 1045, 4-carboxy-3-nitrophenylboronic acid]	18.1 (2.8)
OB(O)c1ccc(Oc2ccccc2)cc1 [Compound 1010, 4-(phenoxy)benzeneboronic acid]	4.6
O=[N+]([O-])c1cc(B(O)O)ccc1Cl [Compound 1021, 4-chloro-3-nitrophenylboronic acid]	44.5 (2.8)

Please examine the following record next.
In: Look at this compound and give its reported (d) Signal: Background: ratio (control = with no enhancer). OB(O)c1ccccc1Cl [Compound 1027, 2-chlorophenylboronic acid]
Out: 3.2 (2.9)

----------
Target: HRP Type VIA (Armoracia rusticana, UniProt P00433)
Sequence (P00433 31-338): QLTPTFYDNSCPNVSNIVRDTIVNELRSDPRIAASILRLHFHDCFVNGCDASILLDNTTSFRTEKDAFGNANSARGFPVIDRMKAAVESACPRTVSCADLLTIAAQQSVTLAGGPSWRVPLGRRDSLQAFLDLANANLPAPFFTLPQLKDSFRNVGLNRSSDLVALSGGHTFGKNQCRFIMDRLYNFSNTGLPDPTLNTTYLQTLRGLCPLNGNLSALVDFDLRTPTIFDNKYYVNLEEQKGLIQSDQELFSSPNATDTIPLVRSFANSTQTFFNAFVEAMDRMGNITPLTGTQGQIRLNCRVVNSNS
Measured Parameter: (b) Increase in signal (with HRP, with test cpd.)

Example entries and their recorded answers appear below.
Clc1cc(Cl)c(OB(Oc2cc(Cl)c(Cl)cc2Cl)c2cc(Cl)c(Cl)cc2Cl)cc1Cl [Compound 1039]	N
c1ccc([B-](c2ccccc2)(c2ccccc2)c2ccccc2)cc1 [Compound 1016, tetraphenylboron sodium]	N
OB(O)c1ccc(Cl)cc1 [Compound 1029, 4-chlorophenylboronic acid]	Y
OB(O)c1ccc(-c2ccccc2)cc1 [Compound 1011, 4-biphenylboronic acid]	Y

Please examine the following record next.
In: Look at this compound and give its reported (b) Increase in signal (with HRP, with test cpd.). Clc1cc(Cl)cc(OB(Oc2cc(Cl)cc(Cl)c2)c2cc(Cl)cc(Cl)c2)c1 [Compound 1040]
Out: N

----------
molecular target: HRP Type VIA (Armoracia rusticana); conditions: 1 mg/ml, 10µl test compound
Measured Parameter: (b) Increase in signal (with HRP, with test cpd.)

Example entries and their recorded answers appear below.
OB(O)c1ccc(Oc2ccccc2)cc1	N
OCC(CO)(CO)COB(O)O [Compound 1017, pentaerythritol borate]	N
OB(O)c1cccc(Cl)c1Cl	N
Cc1ccccc1B(O)O	N
OB(O)c1ccc2cc(O)ccc2c1 [Compound 1006, 6-hydroxy-2-naphthaleneboronic acid]	N
COc1ccc(Br)cc1B(O)O	N
OB(O)c1cc(Cl)ccc1Cl	N
BrCc1ccccc1OB(Oc1ccccc1CBr)c1ccccc1CBr	N

Please examine the following record next.
In: Look at this compound and give its reported (b) Increase in signal (with HRP, with test cpd.). OB(O)c1ccc(B(O)O)cc1
Out: N

----------
Target: HRP Type VIA (Armoracia rusticana, UniProt P00433)
Sequence (P00433 31-338): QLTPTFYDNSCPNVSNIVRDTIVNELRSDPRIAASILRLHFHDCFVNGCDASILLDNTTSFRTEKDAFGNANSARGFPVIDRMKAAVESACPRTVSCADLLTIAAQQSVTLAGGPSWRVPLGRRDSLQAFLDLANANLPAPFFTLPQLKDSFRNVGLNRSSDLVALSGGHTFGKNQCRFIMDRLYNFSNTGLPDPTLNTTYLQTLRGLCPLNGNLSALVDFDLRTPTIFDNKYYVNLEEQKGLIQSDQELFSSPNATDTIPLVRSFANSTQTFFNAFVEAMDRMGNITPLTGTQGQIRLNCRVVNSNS
Details: 1 mg/ml, 10µl test compound
Measured Parameter: (c) Increase in signal: background ratio

OB(O)c1ccccc1-c1ccccc1 [Compound 1004, 2-biphenylboronic acid]	N (N = no)
O=C(CCl)Nc1cccc(B(O)O)c1 [Compound 1031, 3-chloroacetylaminophenylboronic acid]	N (N = no)
OB(O)c1cccc2ccccc12 [Compound 1002, 1-naphthaleneboronic acid]	N (N = no)

----------
Below is a list of entries, each paired with its recorded (d) Signal: Background: ratio (control = with no enhancer) value.
Molecular target: HRP Type VIA (Armoracia rusticana)
Sequence (P00433 31-338): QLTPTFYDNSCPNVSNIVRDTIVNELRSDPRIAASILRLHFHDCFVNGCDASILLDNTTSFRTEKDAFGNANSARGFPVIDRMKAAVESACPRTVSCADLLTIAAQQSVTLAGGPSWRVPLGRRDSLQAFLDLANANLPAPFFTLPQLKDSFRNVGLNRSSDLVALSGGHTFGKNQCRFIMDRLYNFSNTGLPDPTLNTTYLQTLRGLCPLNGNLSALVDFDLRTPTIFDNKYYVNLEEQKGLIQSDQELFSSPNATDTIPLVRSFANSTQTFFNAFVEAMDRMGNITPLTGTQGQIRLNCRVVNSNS
Details: 0.1 mg/ml, 10µl test compound; control value in brackets not reported

Example entries and their recorded answers appear below.
CC(C)COB(c1ccccc1)c1ccccc1	3.0 (2.9)
OB(O)c1ccc(-c2ccc(B(O)O)cc2)cc1	503.3 (2.9)
COc1ccc(Br)cc1B(O)O	12.1

Please examine the following record next.
In: Look at this molecule and give its reported (d) Signal: Background: ratio (control = with no enhancer). CSCc1ccccc1B(O)O
Out: 3.3 (2.9)

Cited source for all entries: patent EP0626016B1
